Tested on: NCI-H1048 cells
Experiment: MTT proliferation assay, NCI-H1048;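 further: Dose-response in 96-well plates over 8 or 10 concentration points, with exposure spanning 3-4 cell doublings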
Type: cell-based
Details: 5 days compound exposure, 1:3 serial dilution starting at 10 μM
*1 amine or outer side, *2 acyl side, *3 side chain or, on linkers, in order; H or OH if unused. Where a SMILES comes first, the peptide text is derived from it. Bridges are numbered along the chain shown (N, C = ends). [ ]: non-standard residue; d: D form. The star is where a group is joined. X124 = CC(C)C(=O)N1[C@@H]2CC[C@H]1C=C(c1ccc(F)cc1C[C@@H](C(=O)[*:2])N(C)[*:1])C2; X81 = COc1cc(N2CCOCC2)ccc1-c1ccc(Cl)cc1C[C@@H](C(=O)[*:2])N(C)[*:1]; X153 = CN([C@@H](Cc1cc(F)ccc1-c1cnn(C2CCOCC2)c1)C(=O)[*:2])[*:1]; NMehhhLys(Me) = CN([C@@H](CCCCCCCN(C)[*:3])C(=O)[*:2])[*:1]; X112 = CN([C@@H](Cc1cc(F)ccc1-c1cnn(C)c1)C(=O)[*:2])[*:1]; X22 = CN([C@@H](Cc1cc(Cl)ccc1-c1cnn(C)c1)C(=O)[*:2])[*:1]; NMe(hhhLys) = CN([C@@H](CCCCCCCN[*:3])C(=O)[*:2])[*:1]; Cyclobutanecarbonyl(1-CF3) = O=C(C1(C(F)(F)F)CCC1)*; cBuCO(3,3-F2-1-CF3) = O=C(C1(C(F)(F)F)CC(F)(F)C1)*; Pro(trans-4-F) = O=C(O)[C@@H]1C[C@@H](F)CN1; Gly(cPr) = N[C@H](C(=O)O)C1CC1
Entries and their GI50
The reply should be a number in nM, with the unit left off.

These solved cases illustrate the format of a correct answer.
{"columns": ["MOLECULE", "MEASUREMENT"],
 "data": [
  ["COc1cc(N2CCOCC2)ccc1-c1ccc(Cl)cc1C[C@H]1C(=O)N(C)CCCCCCC[C@H](N(C)C(=O)[C@@H](NC(=O)[C@@H]2C[C@@H](F)CN2C(=O)C2(C(F)(F)F)CC(F)(F)C2)C2CC2)C(=O)N[C@@H](CC(C)C)C(=O)N1C [Example 361] ({cBuCO(3,3-F2-1-CF3)}-[Pro(trans-4-F)][Gly(cPr)][NMehhhLys(Me)]L[X81]; lactam 3-C)", 30],
  ["CC(C)C[C@@H]1NC(=O)[C@@H](N(C)C(=O)[C@@H](NC(=O)[C@@H]2C[C@@H](F)CN2C(=O)C2(C(F)(F)F)CCC2)C2CC2)CCCCCCCN(C)C(=O)[C@H](Cc2cc(Cl)ccc2-c2cnn(C)c2)N(C)C1=O [Example 185] ({Cyclobutanecarbonyl(1-CF3)}-[Pro(trans-4-F)][Gly(cPr)][NMehhhLys(Me)]L[X22]; lactam 3-C)", 10],
  ["CC(C)C[C@@H]1NC(=O)[C@@H](N(C)C(=O)[C@@H](NC(=O)[C@@H]2C[C@@H](F)CN2C(=O)C2(C(F)(F)F)CC(F)(F)C2)C2CC2)CC=CCCCCN(C)C(=O)[C@H](Cc2cc(F)cnc2OC2CC2)N(C)C1=O", 380]
]}

Measured on NCI-H1048 cells, CC(C)C[C@@H]1NC(=O)[C@@H](N(C)C(=O)[C@@H](NC(=O)[C@@H]2C[C@@H](F)CN2C(=O)C2(C(F)(F)F)CC(F)(F)C2)C2CC2)CCCCCCCNC(=O)[C@H](Cc2cc(F)ccc2C2=C[C@@H]3CC[C@H](C2)N3C(=O)C(C)C)N(C)C1=O [Example 315] ({cBuCO(3,3-F2-1-CF3)}-[Pro(trans-4-F)][Gly(cPr)][NMe(hhhLys)]L[X124]; lactam 3-C) has a documented GI50 of 20

Measured on NCI-H1048 cells, CC(C)C[C@@H]1NC(=O)[C@@H](N(C)C(=O)[C@@H](NC(=O)[C@@H]2C[C@@H](F)CN2C(=O)C2(C(F)(F)F)CC(F)(F)C2)C2CC2)CCCCCCCN(C)C(=O)[C@H](Cc2cc(F)ccc2-c2cnn(C3CCOCC3)c2)N(C)C1=O [Example 93] ({cBuCO(3,3-F2-1-CF3)}-[Pro(trans-4-F)][Gly(cPr)][NMehhhLys(Me)]L[X153]; lactam 3-C) has a documented GI50 of 10

Measured on NCI-H1048 cells, CC(C)C[C@@H]1NC(=O)[C@@H](N(C)C(=O)[C@@H](NC(=O)[C@@H]2C[C@@H](F)CN2C(=O)C2(C(F)(F)F)CCC2)C2CC2)CCCCCCCN(C)C(=O)[C@H](Cc2cc(F)ccc2-c2cnn(C)c2)N(C)C1=O [Example 69] ({Cyclobutanecarbonyl(1-CF3)}-[Pro(trans-4-F)][Gly(cPr)][NMehhhLys(Me)]L[X112]; lactam 3-C) has a documented GI50 of 10
